Attribution: patent US20210228731A1

Entries and their measured pKd follow.
Molecular target: T1, Cynomolgus monkey cKIT D1-5 (cynomolgus monkey, UniProt P10721 26-524 (human entry))
T1 construct: also called cyno cKIT ECD
T1 chain: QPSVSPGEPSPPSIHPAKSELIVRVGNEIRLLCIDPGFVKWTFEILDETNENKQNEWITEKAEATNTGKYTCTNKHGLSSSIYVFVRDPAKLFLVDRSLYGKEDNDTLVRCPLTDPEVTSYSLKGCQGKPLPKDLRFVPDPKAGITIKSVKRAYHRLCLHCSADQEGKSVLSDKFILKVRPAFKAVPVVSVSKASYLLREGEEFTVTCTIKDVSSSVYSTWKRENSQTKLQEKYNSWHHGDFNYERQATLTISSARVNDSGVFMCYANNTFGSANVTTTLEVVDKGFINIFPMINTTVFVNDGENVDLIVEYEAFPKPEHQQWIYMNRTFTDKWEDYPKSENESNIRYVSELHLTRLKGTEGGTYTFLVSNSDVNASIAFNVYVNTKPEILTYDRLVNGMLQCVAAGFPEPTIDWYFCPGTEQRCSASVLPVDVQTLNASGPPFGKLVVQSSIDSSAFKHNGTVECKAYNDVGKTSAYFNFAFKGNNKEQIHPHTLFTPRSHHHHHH
Assay: SET per the column head (Example 4 describes SPR, Biacore: antibody captured by anti-human Fc, cKIT ECD in solution)
Scale: negative log10 of molar concentration, which is what pKd denotes.

binder	pKd
Anti-cKIT Ab3 (antibody, human IgG1, kappa, V domains shown, Full-length human IgG1, kappa light chain) VH: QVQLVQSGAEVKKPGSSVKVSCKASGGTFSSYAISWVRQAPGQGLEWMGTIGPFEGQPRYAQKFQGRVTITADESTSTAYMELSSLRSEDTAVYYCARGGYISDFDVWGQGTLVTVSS VL: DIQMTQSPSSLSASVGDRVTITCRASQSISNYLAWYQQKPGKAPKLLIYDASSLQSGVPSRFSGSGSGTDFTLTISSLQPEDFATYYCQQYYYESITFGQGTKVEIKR	10.28

So what does the record say about pKd for Anti-cKIT Ab2 (antibody, human IgG1, kappa, V domains shown, Full-length human IgG1, kappa light chain) VH: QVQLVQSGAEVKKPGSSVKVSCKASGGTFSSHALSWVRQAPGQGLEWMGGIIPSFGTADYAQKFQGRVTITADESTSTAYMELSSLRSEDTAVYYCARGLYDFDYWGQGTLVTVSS VL: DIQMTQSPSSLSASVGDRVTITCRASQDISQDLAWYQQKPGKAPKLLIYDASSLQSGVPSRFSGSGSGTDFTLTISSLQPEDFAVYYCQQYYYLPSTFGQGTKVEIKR ?
11.00
